Test system: M14
Test: NCI tumour cell line growth inhibition, 48 h
Activity calls are given as the source filed them. No stated cut-off is given here; in the data, active = GI50 up to about 1.1 µM and inactive = higher.
Possible outcomes: Y (active), N (inactive)

• COc1ccccc1NC(=O)CC(=O)N1N=C(C)C(/N=N/c2ccc(S(N)(=O)=O)cc2)C1=O (stereo unspecified) = N
• Cc1cc(C)nc(NS(=O)(=O)c2ccc(Nc3nncc(=O)n3N)cc2)n1 = N
• CCCC[P+](CCCC)(CCCC)C(C(=O)OC)C(C(=O)OC)=C1SC(C(=O)OC)=C(C(=O)OC)S1 (stereo unspecified) = N
• O=C(/C=C/c1ccccc1)/C=C/c1ccccc1 = N
• C/C(=N\Nc1nc2ccccc2[nH]1)c1ncccn1 = Y
• CCC(C(=O)O)c1ccc(OC)cc1 (stereo unspecified) = N

###

Test system: Hs-578T
Assay: NCI tumour cell line growth inhibition, 48 h
Activity calls are given as the source filed them. No stated cut-off is given here; in the data, active = GI50 up to about 1.1 µM and inactive = higher.
Classes used: active, inactive

* O=C1NC(=O)[C@@]2(CC[C@@H](O)C2)c2ccncc21 [SESBANINE] | inactive
* C/C1=C\[C@H](C)C[C@H](C)OC(=O)C[C@H](c2ccc(O)cc2)NC(=O)[C@H](Cc2ccc(O)c(I)c2)N(C)C(=O)[C@H](C)NC(=O)[C@@H](C)C1 | active
* COc1ccc(OC)c(/N=C/c2cc(OC)c(OC)c(OC)c2)c1 | inactive
* O=C(Nc1ccc(-c2cn3ccccc3n2)cc1)c1cc(Br)ccc1O | inactive
* CN(C)CCCN1C(=S)N(CCCN(C)C)c2c3ccccc3nc3c([N+](=O)[O-])ccc1c23 | inactive
* NC(=O)C1CCCNC1 (stereo not drawn) | inactive
* O=C1/C(=C/c2ccc(O)cc2)CCC1CNc1ccccc1 (stereo not drawn) | inactive
* CO[C@H]1[C@H](O)[C@H](O[C@H]2CC[C@@]3(C)[C@H](CC[C@@H]4[C@@H]3CC[C@]3(C)[C@@H](C5=CC(=O)OC5)CC[C@]43O)C2)O[C@@H](C)[C@@H]1O [NERIIFOLIN] | active

###

# GI50 values compiled below
Tested on: M14
Test: NCI tumour cell line growth inhibition, 48 h
Calls of active or inactive are those of the source. Cut-off read from the data, not from the text of the source: active = GI50 up to about 1.1 µM and inactive = higher.
Observed property: GI50

- Cc1ccc([S@+]([O-])c2occc2C=O)cc1: 6.9 µM (inactive)
- CCOC(=O)N(Cc1cccs1)c1cc(OC)c(OC)c(OC)c1: > 100 µM (inactive)
- C[Si](C)(C)OC1CC(=O)OC1n1cc(F)c(=O)[nH]c1=O (stereo not given): 48.6 µM (inactive)
- CC(=O)N1[C@H](C(=O)O)CS[C@H]1c1ccncc1: > 100 µM (inactive)
- CC(=O)O[C@H]1CC[C@@]2(C)C(=CC[C@@H]3C2CC[C@]2(C)Nc4nc5ccccc5cc4CC32)C1 (stereo not given in full): 2.19 µM (inactive)

###

System: OVCAR-8
Assay: NCI tumour cell line growth inhibition, 48 h
Calls of active or inactive are those of the source. Rule as the data show it: active = GI50 up to about 1.1 µM and inactive = higher.
Outcome codes: TRUE = active, FALSE = inactive

* CC(C)(C)OC(=O)N1C(C2=COc3ccccc3O2)=COc2ccccc21 | FALSE
* CC(=O)n1c2ccccc2c2nc3nc(Oc4ccc(C)cc4)c4ccccc4c3cc21 | FALSE
* CSC(SC)=C1Sc2cccc(Cl)c2S1 | FALSE
* Cc1ccc(S(=O)(=O)N/N=C/c2oc(-c3ccncc3)c(-c3ccncc3)c2[N+](=O)[O-])cc1 | FALSE
* CCN(CCCl)c1cc(CN(C)C)cc(NC(=O)C23CCC(C(=O)Nc4cc(CN(C)C)cc(N(CC)CCCl)c4)(CC2)CC3)c1 | TRUE
* O=C(O)C1CCCCN1c1ccccc1[N+](=O)[O-] (stereo not drawn) | FALSE
* CC1(C(=O)NCCN(CCNC(=O)C2(C)CC3(C)CC(C)(C2)C(=O)NC3=O)CCNC(=O)C2(C)CC3(C)CC(C)(C2)C(=O)NC3=O)CC2(C)CC(C)(C1)C(=O)NC2=O (stereo not drawn) | FALSE
* CN(CCNC(=O)c1cn(C)c2c1ccc1cc(Cl)c(Cl)cc12)CCNC(=O)c1cn(C)c2c1ccc1cc(Cl)c(Cl)cc12 | FALSE

###

Test system: HCC 2998
Test: NCI tumour cell line growth inhibition, 48 h
Activity calls are given as the source filed them. No stated cut-off is given here; in the data, active = GI50 up to about 1.1 µM and inactive = higher.
Observed property: GI50

* COc1c2c(c(OC)c3c(=O)cc(C/C(=N/NC(=O)C[n+]4ccccc4)C(=O)Nc4cc(C)ccc4C)oc13)OCO2 | > 100 µM (inactive)
* Cc1ccc(S(=O)(=O)OCOS(=O)(=O)c2ccc(C)cc2)cc1 | > 100 µM (inactive)
* COc1ccc(C2OC2C(=O)C23CC4CC(CC(C4)C2)C3)cc1 (stereo not given) | 31 µM (inactive)
* CC(=O)N1[C@H](C(=O)O)CS[C@H]1c1ccncc1 | > 100 µM (inactive)
* O=C1CC[C@@]2(O)[C@H]3Cc4ccc(-c5ccccc5)c5c4[C@@]2(CCN3CC2CC2)[C@H]1O5 | 18.4 µM (inactive)

###

Parameter: GI50. Scope: all listed entries.
Tested on: DMS-273
Test: NCI tumour cell line growth inhibition, 48 h
Calls of active or inactive are those of the source. Cut-off read from the data, not from the text of the source: active = GI50 up to about 1.1 µM and inactive = higher.
Observed property: GI50

* O=C(OCCOCCOC(=O)c1c[nH]cc1-c1ccccc1)c1c[nH]cc1-c1ccccc1 | 15.9 µM (inactive)
* CC(=O)O[C@H]1CC[C@@]2(C)C(=CC[C@@H]3C2CC[C@]2(C)Nc4nc5ccccc5cc4CC32)C1 (stereo partly specified) | 4.82 µM (inactive)
* Cc1nn(C(=O)CC(=O)Nc2ccc(Cl)cc2)c(C)c1/N=N/c1ccccc1C(=O)O | > 100 µM (inactive)
* CCC(C(=O)O)c1ccc(OC)cc1 (stereo unspecified) | > 100 µM (inactive)
* C/C(=C\c1ccccc1)C(O)S(=O)(=O)O (stereo unspecified) | > 100 µM (inactive)
* N[C@H](C(=O)O)[C@@H]1CC(Cl)=NO1 | 2.33 µM (inactive)

###

System: SNB-78
Test: NCI tumour cell line growth inhibition, 48 h
Activity calls are given as the source filed them. Cut-off read from the data, not from the text of the source: active = GI50 up to about 1.1 µM and inactive = higher.
Outcome codes: active, inactive

* C=C(C)c1nc(Oc2ccccc2)nc(Oc2ccccc2)n1 | inactive
* CN(C)/N=C(/c1nc2ccc([N+](=O)[O-])cc2nc1O)C(O)c1ccco1 (stereo unspecified) | inactive
* CCOC(=O)N1CCc2cc(OC)c(OC)cc2/C1=C/c1ccc(OC)c(OC)c1 | inactive
* COC(=O)c1ccc(Cl)cc1NC(=O)C1CCCCC1 | inactive
* COc1cccc2c1C(=O)c1c(O)c3c(c(O)c1C2=O)C[C@@](O)(C(=O)CO)C[C@@H]3OC1CC(N)C(O)C(C)O1 (stereo partly specified) | active
* CC(=O)Nc1ccc(-c2nnc(SCC(=O)Nc3ccc(Cl)cc3)o2)cc1 | inactive
* COc1c2c(c(OC)c3c(=O)cc(C/C(=N/NC(=O)C[n+]4ccccc4)C(=O)Nc4cc(C)ccc4C)oc13)OCO2 | inactive
* CC(=O)O[C@H]1CC[C@@]2(C)C(=CC[C@@H]3C2CC[C@]2(C)Nc4nc5ccccc5cc4CC32)C1 (stereo partly specified) | inactive
* O=C(NC(=O)c1cn(CCNCCO)c(=O)[nH]c1=O)OCc1ccccc1 | inactive
* CN(C)CCSc1cccc(-c2cc(-c3cccc(SCCN(C)C)c3)nc(SCCN(C)C)n2)c1 | inactive
* CCCC(C)n1c(C)nc2c1C(=O)c1ccccc1C2=O (stereo unspecified) | inactive

###

Tested on: UO-31
Experiment: NCI tumour cell line growth inhibition, 48 h
Active and inactive are the calls of the source. Rule as the data show it: active = GI50 up to about 1.1 µM and inactive = higher.
Recorded GI50 for the following compounds
Observed property: GI50

* COc1ccc(C2S/C(=C\c3ccc(OC)cc3OC)C(=O)N2NC(=O)Cc2ccccc2)cc1 (stereo not given) | > 100 µM (inactive)
* CCOC(=O)c1cc2c([N+](=O)[O-])c(N)ccc2s1 | > 100 µM (inactive)
* N[C@H](C(=O)O)[C@@H]1CC(Cl)=NO1 | 6.25 µM (inactive)
* O=C1CC[C@@]2(O)[C@H]3Cc4ccc(-c5ccccc5)c5c4[C@@]2(CCN3CC2CC2)[C@H]1O5 | 16.1 µM (inactive)
* C=C(C)c1nc(Oc2ccccc2)nc(Oc2ccccc2)n1 | 17.6 µM (inactive)
* O=C(/C=C/c1ccccc1O)c1ccccc1Cl | 52.4 µM (inactive)
* CN(C)CCONC(=O)C12CC3CC(CC(C3)C1)C2 | > 100 µM (inactive)
* COC(=O)CC1C2(C)C3=C(C)C(c4ccoc4)CC3OC2C2OC(=O)C3(C)C=CC(=O)C1(C)C23 (stereo not given) | 1.19 µM (inactive)
* CN(C)CCCN1C(=S)N(CCCN(C)C)c2c3ccccc3nc3c([N+](=O)[O-])ccc1c23 | 5.66 µM (inactive)
* CN(C)c1ccc(NN=C2SC(=N\c3ccccc3)/C(=N/c3ccccc3)S2)cc1 | 52.4 µM (inactive)
